Data origin: ChEMBL document CHEMBL3988442

# Assay target: Shiga toxin 2 (Escherichia coli O157:H7) (UniProt P09385+P09386)
# Protocol notes: E. coli 0.157:H7 Shiga Toxin SOP - stx2 screening assay
# Format: functional
# Design: scale not given: direction of the effect not stated beside the values
# Condition: 30 µM
Can you tell me Percent Effect for the items I'm about to list?
Answers are plain numbers, in %.

Record excerpt, results attached:
{"columns": ["Compound", "Measured value"],
 "data": [
  ["COc1ccsc1C(=O)N1CCCC(n2nc(C)nc2C)C1 (configuration not stated)", 6.02],
  ["CCOCC1CC2(CCN(C(=O)c3ccccc3F)CC2)CO1 (configuration not stated)", 5.12],
  ["COc1cccc(-c2nccnc2C2CCN(C(C)=O)CC2)c1", 16.4],
  ["COCCN1CCN(CCCS(=O)(=O)c2ccccc2)CC1C (configuration not stated)", -5.54],
  ["Cc1cc(C2CCCN(C(=O)c3cnn(C)c3)C2)ccn1 (configuration not stated)", -7.91],
  ["CCOc1ncccc1NC(=O)c1cc2c(s1)CCC2", 1.91]
]}

Kindly give each listed record's Percent Effect.
1. Cc1nc2cc(C(=O)N3CCCC(n4cncn4)C3)ccc2n1C (configuration not stated)
2. CC(C)c1cc(C(=O)NCCN2CCCS2(=O)=O)n[nH]1
3. CC(C)c1nc(C2CCCN2CC(=O)Nc2ccc(Cl)cn2)no1 (configuration not stated)

Response:
[-28.5, -14.6, 9.53]

Kindly give each listed record's Percent Effect.
1. CC(C)c1ccc(O)c(C(=O)N2CCN(Cc3cscn3)CC2)c1
2. Cc1cccc(OCCC(=O)N2CCCN(CC(N)=O)CC2)c1C
3. CC(C)Oc1cccc(C(=O)C2CCCN(C(=O)c3ncn[nH]3)C2)c1 (configuration not stated)

Response:
[-7.95, 1.67, -0.343]
